- Tested on: OVCAR-5 ovarian
- protocol description: NCI tumour cell line growth inhibition, 48 h
measure: GI50

**Q:** Short answer please: GI50, OVCAR-5 ovarian, entry "COC(=O)/C=C/c1cn(C(C)=O)c2ccc(Br)cc12"
**A:** 31 µM

**Q:** Request: GI50, test system OVCAR-5 ovarian, entry C=C(C)[C@@H]1CC[C@]2(CO)CC[C@]3(C)[C@H](CC[C@@H]4[C@@]5(C)CCC(NCCc6ccc(O)cc6)C(C)(C)[C@@H]5CC[C@]43C)[C@@H]12 (some centres undefined)
**A:** 1.59 µM

**Q:** Test system OVCAR-5 ovarian; read-out GI50; what value for "COc1ccc(-c2nc(N3CCN(C(=O)C4CCCCC4)CC3)c3c4c(sc3n2)CCCC4)cc1" ?
**A:** > 100 µM

**Q:** Return GI50 measured with OVCAR-5 ovarian given this compound: "COc1cc(OC)c(NC(=O)c2cc3ccccc3cc2O)cc1Cl"
**A:** 4.7 µM

**Q:** Item: "O=C(/C(=C/c1ccc([N+](=O)[O-])cc1)SCc1ccc(F)cc1)c1ccc(Cl)cc1" Test system: OVCAR-5 ovarian Read-out: GI50 Value: ?
**A:** 12.7 µM

**Q:** Lab request: please report GI50 under test system OVCAR-5 ovarian for "CNC(=O)Oc1cc(C)c(/C=C/c2cncc(C(=O)NC)c2)c(C)c1"
**A:** > 25 µM

**Q:** Kindly state the measured GI50 obtained for "O=S(=O)(Nc1cc(Cl)ccc1Cl)c1ccc(-c2cnc(C3CC3)o2)cc1" with OVCAR-5 ovarian.
**A:** 3.39 µM

**Q:** Please tell me: GI50 of "N#CC1=C(N)NC(=S)NC12Nc1ccccc1N2" , system OVCAR-5 ovarian?
**A:** 46.8 µM
